Values from patent US12297235B2

Type: biochemical, human
Conditions: 0.77 mM peptide in factor B-depleted serum; standardized to water or DMSO; Table 6
hemolysis: recorded values
Provide only the numeric value, understood in %.

In plain terms, `CC[C@H](C)[C@H](N)C(=O)N[C@@H](C)C(=O)N[C@@H](CC(C)C)C(=O)N[C@H](C(=O)N[C@@H](CC(C)C)C(=O)N[C@@H](CCC(=O)O)C(=O)N1CCC[C@H]1C(=O)N[C@H](C(=O)N[C@@H](CS)C(=O)N[C@@H](CS)C(=O)N[C@@H](CCC(N)=O)C(=O)N[C@@H](CCC(=O)O)C(=O)N[C@@H](CCCNC(=N)N)C(=O)N[C@@H](C)C(=O)N[C@@H](C)C(=O)NCCOCCOCCOCCOCCOCCOCCOCCOCCC(=O)O)[C@@H](C)CC)[C@@H](C)CC` has a documented hemolysis of 34.7

Here is another molecule to look at.
In plain terms, `CC[C@H](C)[C@H](N)C(=O)N[C@@H](C)C(=O)N[C@@H](CC(C)C)C(=O)N[C@H](C(=O)N[C@@H](CC(C)C)C(=O)N[C@@H](CCC(=O)O)C(=O)N1CCC[C@H]1C(=O)N[C@H](C(=O)N[C@@H](CS)C(=O)N[C@@H](CS)C(=O)N[C@@H](CCC(N)=O)C(=O)N[C@@H](CCC(=O)O)C(=O)N[C@@H](CCCNC(=N)N)C(=O)N[C@@H](C)C(=O)N[C@@H](C)C(=O)NCCOCCOCCOCCOCCC(=O)O)[C@@H](C)CC)[C@@H](C)CC` has a documented hemolysis of 12.4
